# Measured On: Metabotropic glutamate receptor 2 (Homo sapiens)
# Sequence (Q14416 19-872 limits assumed): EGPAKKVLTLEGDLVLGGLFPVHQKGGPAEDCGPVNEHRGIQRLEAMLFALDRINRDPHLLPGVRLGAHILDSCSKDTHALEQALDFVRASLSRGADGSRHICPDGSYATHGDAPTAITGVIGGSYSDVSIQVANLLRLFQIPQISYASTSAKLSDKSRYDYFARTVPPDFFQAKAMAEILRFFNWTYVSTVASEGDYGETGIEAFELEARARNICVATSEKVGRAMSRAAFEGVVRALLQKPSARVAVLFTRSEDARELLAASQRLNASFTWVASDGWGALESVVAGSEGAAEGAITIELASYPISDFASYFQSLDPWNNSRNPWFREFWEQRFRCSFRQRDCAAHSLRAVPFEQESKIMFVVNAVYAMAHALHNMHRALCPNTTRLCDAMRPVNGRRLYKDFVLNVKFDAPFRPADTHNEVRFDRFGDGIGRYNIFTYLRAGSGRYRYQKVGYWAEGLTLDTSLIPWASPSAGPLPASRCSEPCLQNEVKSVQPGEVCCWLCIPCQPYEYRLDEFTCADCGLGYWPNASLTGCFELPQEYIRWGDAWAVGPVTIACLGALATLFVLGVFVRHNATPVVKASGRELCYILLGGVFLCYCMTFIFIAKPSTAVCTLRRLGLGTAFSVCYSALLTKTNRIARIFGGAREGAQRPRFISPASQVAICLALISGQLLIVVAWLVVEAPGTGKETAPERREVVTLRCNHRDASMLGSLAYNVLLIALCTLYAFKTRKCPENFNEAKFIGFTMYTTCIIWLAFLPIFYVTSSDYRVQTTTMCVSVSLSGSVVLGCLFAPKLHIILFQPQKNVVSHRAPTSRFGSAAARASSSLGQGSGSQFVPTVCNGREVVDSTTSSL
# Assay Procedure: Positive allosteric modulation of recombinant human mGlu2 receptor expressed in CHO cells assessed as potentiation of glutamate-induced effect preincubated for 5 mins followed by glutamate stimulation for 3 mins by Fluo-4AM staining-based FLIPR assay
# Type: cell-based
So I've got a bunch of molecules here, and I need their %max values.
Give the value in % but do not write % after it.

Simply: Cn1c(=O)n(CC(C)(C)C)c2ccc(N3CCCC4CCCCC43)nc21 (mixture of isomers) , Metabotropic glutamate receptor 2 (Homo sapiens), %max = 77

Simply: Cn1c(=O)n(CC(C)(C)C)c2ccc(N3CC4CCC3CN4C(=O)c3cccnc3)nc21 (racemic) , Metabotropic glutamate receptor 2 (Homo sapiens), %max = 74

Simply: Cn1c(=O)n(CC(C)(C)C)c2ccc(N3CC4CCC3CN4C(=O)c3ccccc3)nc21 (racemic) , Metabotropic glutamate receptor 2 (Homo sapiens), %max = 71

Simply: Cn1c(=O)n(CC(C)(C)C)c2ccc(C3CCN(C(=O)c4ccon4)CC3)nc21 , Metabotropic glutamate receptor 2 (Homo sapiens), %max = 79
